// data source = the Human Domainome abundance scans (Beltran et al. 2025)

Would you mind telling me the reported abundance fitness of each entry?
B1: Zinc finger homeobox protein 3, residues 2643 to 2698; numbered along this chain, Q15911 (parent)
chain: RLRTTITPEQLEILYQKYLLDSNPTRKMLDHIAHEVGLKKRVVQVWFQNTRARERK

# Variants of: B1
# METHOD NOTES: abundance fitness (aPCA) (normalised: wild type 0, dead -1); higher = more abundant; growth selection in yeast, the domain comes from the species named
# CONDITION CONTEXT: Homo sapiens
One number for each entry.

# SEQUENCE CHANGE, EXPERIMENTAL VALUE
measured = [
    ("Q10R", -0.755),
    ("D30R", -0.124),
]

Fill in abundance fitness for each of the 6 variants listed.
1. W46N
2. A52F
3. H31V
4. W46R
5. L19S
6. E54V

1: -0.902; 2: -0.428; 3: 0.134; 4: -0.678; 5: -0.154; 6: -0.39
